# TARGET_SYSTEM: JAK-1 (Homo sapiens, UniProt P23458)
# Sequence (P23458 whole entry): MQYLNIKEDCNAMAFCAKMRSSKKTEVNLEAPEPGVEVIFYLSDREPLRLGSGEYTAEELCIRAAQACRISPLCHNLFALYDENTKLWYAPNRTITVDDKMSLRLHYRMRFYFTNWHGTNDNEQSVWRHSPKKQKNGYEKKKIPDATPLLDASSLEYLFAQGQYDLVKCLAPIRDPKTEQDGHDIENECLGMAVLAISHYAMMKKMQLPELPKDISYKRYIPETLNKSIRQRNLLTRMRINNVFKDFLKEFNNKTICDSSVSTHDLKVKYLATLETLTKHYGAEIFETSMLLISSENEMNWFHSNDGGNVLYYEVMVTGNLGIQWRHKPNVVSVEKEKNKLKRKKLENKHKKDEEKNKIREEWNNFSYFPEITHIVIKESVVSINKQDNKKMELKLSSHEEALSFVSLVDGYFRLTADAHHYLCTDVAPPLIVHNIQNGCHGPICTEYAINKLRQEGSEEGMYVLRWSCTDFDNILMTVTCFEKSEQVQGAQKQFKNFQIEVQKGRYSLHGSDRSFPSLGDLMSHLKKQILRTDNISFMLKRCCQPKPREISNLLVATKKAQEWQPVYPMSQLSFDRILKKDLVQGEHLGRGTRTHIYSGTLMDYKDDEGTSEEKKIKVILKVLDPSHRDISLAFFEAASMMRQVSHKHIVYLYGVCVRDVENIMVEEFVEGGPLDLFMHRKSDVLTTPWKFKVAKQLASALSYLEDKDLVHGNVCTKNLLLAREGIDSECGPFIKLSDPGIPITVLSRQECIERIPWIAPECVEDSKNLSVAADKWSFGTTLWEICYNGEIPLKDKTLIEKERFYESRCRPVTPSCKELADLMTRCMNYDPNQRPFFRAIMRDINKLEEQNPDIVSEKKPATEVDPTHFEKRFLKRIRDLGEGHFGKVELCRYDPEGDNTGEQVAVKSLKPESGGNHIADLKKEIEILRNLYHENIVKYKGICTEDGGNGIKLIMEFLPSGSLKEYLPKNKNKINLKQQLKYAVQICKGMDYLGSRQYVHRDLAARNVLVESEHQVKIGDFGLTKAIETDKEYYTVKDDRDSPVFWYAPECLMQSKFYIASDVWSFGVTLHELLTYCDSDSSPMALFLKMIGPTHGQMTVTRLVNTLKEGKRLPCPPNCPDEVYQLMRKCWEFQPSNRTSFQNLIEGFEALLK
# TEST_DESCRIPTION: JAK enzymatic assay (Eurofins KinaseProfiler/IC50Profiler, radiometric), JAK-1
pIC50: −log10 of the molar value.
Catalogue of pIC50 readings, one per entry.
PROPERTY_MEASURED: pIC50

# COMPOUND, VALUE_OBSERVED
records = [
    ("O=C(CN1CCN(c2nc[nH]c3nccc2-3)CC1)Nc1ccc(/N=N/c2ccccc2)cc1", "> 6.60"),
    ("CC(C)N(C)S(=O)(=O)c1ccc(NC(=O)CN2CCN(c3nc[nH]c4nccc3-4)CC2)cc1", "6.30 to 6.60"),
    ("CC(C)NS(=O)(=O)c1ccc(NC(=O)[C@H](C)N2CCN(c3ncnc4[nH]ccc34)CC2)cc1", "> 6.60"),
    ("O=C(CN1CCN(c2nc[nH]c3nccc2-3)CC1)Nc1ccc(S(=O)(=O)Nc2ncccn2)cc1", "> 6.60"),
    ("O=C(CN1CCN(c2nc[nH]c3nccc2-3)CC1)Nc1cccc(S(=O)(=O)N2CCCC2)c1", "6.30 to 6.60"),
    ("CC(C)(C)NS(=O)(=O)c1ccc(NC(=O)CN2CCN(c3ncnc4[nH]ccc34)CC2)cc1", "> 6.60"),
    ("CNS(=O)(=O)c1ccc(NC(=O)CN2CCN(c3ncnc4[nH]ccc34)CC2)cc1F", "> 6.60"),
    ("CNS(=O)(=O)c1ccc(N(C)C(=O)CN2CCN(c3ncnc4[nH]ccc34)CC2)cc1", "6.30 to 6.60"),
    ("CN(C)S(=O)(=O)c1cc(NC(=O)CN2CCN(c3nc[nH]c4nccc3-4)CC2)ccc1Cl", "6.30 to 6.60"),
    ("O=C(CN1CCN(c2nc[nH]c3nccc2-3)CC1)Nc1ccc(S(=O)(=O)N2CCCCC2)cc1", "> 6.60"),
    ("O=C(CN1CCN(c2ncnc3[nH]ccc23)CC1)Nc1ccc(S(=O)(=O)N2CCC2)cc1", "6.30 to 6.60"),
    ("O=C(CN1CCN(c2ncnc3[nH]ccc23)CC1)Nc1ccc(S(=O)(=O)NC2CC2)cc1", "> 6.60"),
    ("CC(C(=O)Nc1cccc(S(=O)(=O)N(C)C)c1)N1CCN(c2nc[nH]c3nccc2-3)CC1 (stereo not shown)", "< 6.00"),
]

---

Record: IC50 reported on Human JAK-3 (Homo sapiens, UniProt P52333).
Sequence (P52333 whole entry): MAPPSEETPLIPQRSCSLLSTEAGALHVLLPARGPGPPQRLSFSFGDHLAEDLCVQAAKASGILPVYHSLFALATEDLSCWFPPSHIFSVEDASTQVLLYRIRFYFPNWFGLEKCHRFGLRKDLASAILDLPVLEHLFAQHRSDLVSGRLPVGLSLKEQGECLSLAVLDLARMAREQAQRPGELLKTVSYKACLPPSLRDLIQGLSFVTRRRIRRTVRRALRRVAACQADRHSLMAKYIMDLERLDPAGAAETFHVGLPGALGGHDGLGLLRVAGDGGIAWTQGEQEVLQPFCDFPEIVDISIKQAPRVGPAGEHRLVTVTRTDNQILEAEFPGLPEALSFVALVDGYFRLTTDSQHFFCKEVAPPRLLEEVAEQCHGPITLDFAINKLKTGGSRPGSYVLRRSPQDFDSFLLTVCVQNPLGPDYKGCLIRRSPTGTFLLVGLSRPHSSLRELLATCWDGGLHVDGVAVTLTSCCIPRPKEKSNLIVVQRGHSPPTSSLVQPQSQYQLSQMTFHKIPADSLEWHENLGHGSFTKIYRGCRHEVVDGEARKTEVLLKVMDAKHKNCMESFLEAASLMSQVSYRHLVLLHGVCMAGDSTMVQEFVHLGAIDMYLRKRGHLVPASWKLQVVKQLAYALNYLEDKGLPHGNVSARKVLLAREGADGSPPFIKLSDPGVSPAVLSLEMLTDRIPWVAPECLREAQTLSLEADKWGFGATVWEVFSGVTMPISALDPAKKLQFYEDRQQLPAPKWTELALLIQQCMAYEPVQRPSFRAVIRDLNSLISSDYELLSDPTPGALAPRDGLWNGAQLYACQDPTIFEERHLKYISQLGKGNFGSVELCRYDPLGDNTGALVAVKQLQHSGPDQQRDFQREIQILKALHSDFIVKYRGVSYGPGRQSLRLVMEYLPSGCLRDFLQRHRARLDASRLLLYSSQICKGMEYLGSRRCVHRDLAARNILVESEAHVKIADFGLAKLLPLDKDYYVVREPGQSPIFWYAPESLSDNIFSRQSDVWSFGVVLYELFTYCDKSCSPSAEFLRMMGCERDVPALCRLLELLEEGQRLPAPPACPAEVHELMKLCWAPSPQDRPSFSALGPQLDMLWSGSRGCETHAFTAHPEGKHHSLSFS
PROPERTY_MEASURED: IC50

# COMPOUND, PROPERTY_MEASURED, VALUE_OBSERVED
data = [
    ("CN(C)S(=O)(=O)c1ccc(NC(=O)CN2CCN(c3ncnc4[nH]ccc34)CC2)cc1Cl", "IC50", "> 1 µM"),
    ("O=C(CN1CCN(c2ncnc3[nH]ccc23)CC1)Nc1ccc(S(=O)(=O)N2CCC2)cc1", "IC50", "> 1 µM"),
    ("O=C(CN1CCN(c2ncnc3[nH]ccc23)CC1)Nc1ccc(S(=O)(=O)NC2CC2)cc1", "IC50", "> 1 µM"),
    ("CC(C)NS(=O)(=O)c1ccc(NC(=O)C(C)N2CCN(c3ncnc4[nH]ccc34)CC2)cc1 (stereo not drawn)", "IC50", "> 1 µM"),
    ("CC(C(=O)Nc1ccc(S(=O)(=O)N2CCCCC2)cc1)N1CCN(c2ncnc3[nH]ccc23)CC1 (stereo not drawn)", "IC50", "> 1 µM"),
    ("CNS(=O)(=O)c1ccc(NC(=O)CN2CCN(c3ncnc4[nH]ccc34)CC2)cc1", "IC50", "0.5 to 1 µM"),
    ("CNS(=O)(=O)c1ccc(NC(=O)CN2CCN(c3ncnc4[nH]ccc34)CC2)cc1F", "IC50", "0.5 to 1 µM"),
    ("CNS(=O)(=O)c1ccc(N(C)C(=O)CN2CCN(c3ncnc4[nH]ccc34)CC2)cc1", "IC50", "> 1 µM"),
    ("COc1cc(NC(=O)CN2CCN(c3ncnc4[nH]ccc34)CC2)ccc1S(=O)(=O)N(C)C", "IC50", "> 1 µM"),
]
